Measured NanoBRET Fold Response, listed per entry.
# assayed_target: P2RY1 (Homo sapiens)
# Construct: purchased Promega (in-house HiBiT-GPCR construct library, NanoBRET)
# Sequence (P47900 whole entry): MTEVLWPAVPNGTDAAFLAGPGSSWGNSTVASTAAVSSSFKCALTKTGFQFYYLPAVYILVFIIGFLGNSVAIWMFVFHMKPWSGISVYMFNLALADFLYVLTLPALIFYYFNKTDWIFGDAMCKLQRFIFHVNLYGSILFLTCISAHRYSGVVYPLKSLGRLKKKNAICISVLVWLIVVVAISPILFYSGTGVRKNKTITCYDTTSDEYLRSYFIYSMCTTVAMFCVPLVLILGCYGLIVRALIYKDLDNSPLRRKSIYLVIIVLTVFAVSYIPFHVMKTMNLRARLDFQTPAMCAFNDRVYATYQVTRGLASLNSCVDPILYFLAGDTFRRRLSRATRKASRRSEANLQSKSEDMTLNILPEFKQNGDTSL
# test_summary: NanoBRET screen HiBiT-P2RY1 in HEK293
# Assay type: binding
# run_conditions: P2RY1; tracer 0.1μM
Give the figure by itself; no unit, no explanation.

compound: Cc1nc2n(c(=O)c1CCN1CCC(c3noc4cc(F)ccc34)CC1)CCCC2OC(=O)NCCOCCOCCOCCOCCNC(=O)CCc1ccc2n1[B-](F)(F)[N+]1=C(c3ccc[nH]3)C=CC1=C2 (centres unmarked) [Risperidone-2-NB590]
reported_result: 0.98

Enter reported NanoBRET Fold Response observed with P2RY1 (Homo sapiens) for O=C(CCc1ccc2n1[B-](F)(F)[N+]1=C(c3ccc[nH]3)C=CC1=C2)NCCOCCOCCNC(=O)OCCOCCN1CCN(C2=Nc3ccccc3Sc3ccccc32)CC1 [Quetiapine-a-2-NB590]
1.00

Enter reported NanoBRET Fold Response observed with P2RY1 (Homo sapiens) for O=C(CCOCCOCCOCCOCCNC(=O)CCc1ccc2n1[B-](F)(F)[N+]1=C(c3ccc[nH]3)C=CC1=C2)NCCCN1CCN(C2=Nc3ccccc3Oc3ccc(Cl)cc32)CC1 [Loxapine-a-2-NB590]
1.01

Enter reported NanoBRET Fold Response observed with P2RY1 (Homo sapiens) for CC(C)N(CC[C@H](c1ccccc1)c1cc(CCNC(=O)c2ccc(CNC(=O)CCc3ccc4n3[B-](F)(F)[N+]3=C(c5ccc[nH]5)C=CC3=C4)cc2)ccc1O)C(C)C [Tolterodine-BZ-NB590]
1.43

Enter reported NanoBRET Fold Response observed with P2RY1 (Homo sapiens) for COc1ccccc1N1CCN(CCCCN2C(=O)c3ccc(CNC(=O)CCOCCNC(=O)c4ccc(CNC(=O)CCc5ccc6n5[B-](F)(F)[N+]5=C(c7ccc[nH]7)C=CC5=C6)cc4)cc3C2=O)CC1 [NAN-190-3-NB590]
0.97

---

# assayed_target: LTB4R (Homo sapiens, UniProt Q15722)
# Construct: purchased Promega (in-house HiBiT-GPCR construct library, NanoBRET)
# Sequence (Q15722 whole entry): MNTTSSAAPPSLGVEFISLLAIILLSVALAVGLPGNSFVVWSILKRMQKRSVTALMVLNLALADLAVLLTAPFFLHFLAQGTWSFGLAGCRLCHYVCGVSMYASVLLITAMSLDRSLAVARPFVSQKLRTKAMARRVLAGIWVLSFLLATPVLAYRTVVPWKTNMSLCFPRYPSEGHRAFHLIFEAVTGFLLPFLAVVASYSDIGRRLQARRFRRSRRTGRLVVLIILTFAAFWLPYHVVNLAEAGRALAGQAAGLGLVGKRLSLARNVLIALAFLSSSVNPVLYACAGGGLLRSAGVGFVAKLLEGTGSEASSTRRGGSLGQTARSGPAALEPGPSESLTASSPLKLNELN
# test_summary: NanoBRET screen HiBiT-LTB4R in HEK293
# Type: binding
# run_conditions: LTB4R; tracer 1μM
reported_property: NanoBRET Fold Response
Give the figure by itself; no unit, no explanation.

compound: O=C(CCc1ccc2n1[B-](F)(F)[N+]1=C(c3ccc[nH]3)C=CC1=C2)NCc1ccc(C(=O)NCCOCCC(=O)N[C@@H]2CC[C@@]3(O)[C@H]4Cc5ccc(O)c6c5[C@@]3(CCN4CC3CC3)[C@H]2O6)cc1 [Naltrexone-3-NB590]
assayed_target: LTB4R (Homo sapiens, UniProt Q15722)
NanoBRET Fold Response: 1.06

Next compound, NanoBRET Fold Response to be filled in.
Value lookup for NanoBRET Fold Response; key = COc1ccccc1N1CCN(CCCCN2C(=O)c3ccc(CNC(=O)CCOCCNC(=O)c4ccc(CNC(=O)CCc5ccc6n5[B-](F)(F)[N+]5=C(c7ccc[nH]7)C=CC5=C6)cc4)cc3C2=O)CC1
1.09

---

# assayed_target: FPR1 (Homo sapiens)
# Construct: purchased Promega (in-house HiBiT-GPCR construct library, NanoBRET)
# Sequence (P21462 whole entry): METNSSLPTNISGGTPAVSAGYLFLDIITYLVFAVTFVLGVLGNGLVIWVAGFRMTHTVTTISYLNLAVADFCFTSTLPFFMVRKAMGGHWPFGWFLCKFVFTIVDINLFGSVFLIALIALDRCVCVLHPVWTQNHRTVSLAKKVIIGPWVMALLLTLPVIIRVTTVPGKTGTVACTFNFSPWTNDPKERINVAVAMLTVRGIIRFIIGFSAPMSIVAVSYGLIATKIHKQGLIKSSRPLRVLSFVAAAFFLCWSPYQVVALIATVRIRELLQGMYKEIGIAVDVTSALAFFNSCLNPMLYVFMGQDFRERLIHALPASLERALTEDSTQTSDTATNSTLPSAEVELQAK
# test_summary: NanoBRET screen HiBiT-FPR1 in HEK293
# Type: binding
# run_conditions: FPR1; tracer 0.1μM
reported_property: NanoBRET Fold Response
Give the figure by itself; no unit, no explanation.

Recorded NanoBRET Fold Response, per entry:
molecule: N#CN=C(NCCCOc1cccc(CN2CCCCC2)c1)NCCNC(=O)CCOCCOCCOCCOCCNC(=O)CCc1ccc2n1[B-](F)(F)[N+]1=C(c3ccc[nH]3)C=CC1=C2
NanoBRET Fold Response: 0.99

molecule: CCCn1c(=O)c2[nH]c(-c3ccc(OCC(=O)NCCNC(=O)CCOCCNC(=O)c4ccc(CNC(=O)CCc5ccc6n5[B-](F)(F)[N+]5=C(c7ccc[nH]7)C=CC5=C6)cc4)cc3)nc2n(CCC)c1=O
NanoBRET Fold Response: 1.15

molecule: COc1ccccc1N1CCN(CCCCN2C(=O)c3ccc(CNC(=O)CCOCCNC(=O)c4ccc(CNC(=O)CCc5ccc6n5[B-](F)(F)[N+]5=C(c7ccc[nH]7)C=CC5=C6)cc4)cc3C2=O)CC1
NanoBRET Fold Response: 0.95

molecule: Cc1nc2n(c(=O)c1CCN1CCC(c3noc4cc(F)ccc34)CC1)CCCC2OC(=O)NCCOCCOCCOCCOCCNC(=O)CCc1ccc2n1[B-](F)(F)[N+]1=C(c3ccc[nH]3)C=CC1=C2 (centres unmarked)
NanoBRET Fold Response: 0.97

molecule: O=C(CCc1ccc2n1[B-](F)(F)[N+]1=C(c3ccc[nH]3)C=CC1=C2)NCCOCCOCCNC(=O)OCCOCCN1CCN(C2=Nc3ccccc3Sc3ccccc32)CC1
NanoBRET Fold Response: 1.05

molecule: Cc1cc2c(s1)Nc1ccccc1N=C2N1CCN(CCCNC(=O)CCOCCOCCOCCOCCNC(=O)CCc2ccc3n2[B-](F)(F)[N+]2=C(c4ccc[nH]4)C=CC2=C3)CC1
NanoBRET Fold Response: 1.09

Value lookup for NanoBRET Fold Response; key = CC(C)N(CC[C@H](c1ccccc1)c1cc(CCNC(=O)c2ccc(CNC(=O)CCc3ccc4n3[B-](F)(F)[N+]3=C(c5ccc[nH]5)C=CC3=C4)cc2)ccc1O)C(C)C
1.02

Value lookup for NanoBRET Fold Response; key = O=C(CCOCCOCCOCCOCCNC(=O)CCc1ccc2n1[B-](F)(F)[N+]1=C(c3ccc[nH]3)C=CC1=C2)NCCCN1CCN(C2=Nc3ccccc3Oc3ccc(Cl)cc32)CC1
0.99

Value lookup for NanoBRET Fold Response; key = COc1ccccc1N1CCN(CCCCN2C(=O)c3ccc(CNC(=O)CCOCCOCCOCCOCCNC(=O)CCc4ccc5n4[B-](F)(F)[N+]4=C(c6ccc[nH]6)C=CC4=C5)cc3C2=O)CC1
1.09

Value lookup for NanoBRET Fold Response; key = CC(C)N(CC[C@H](c1ccccc1)c1cc(CCNC(=O)CCOCCOCCOCCOCCNC(=O)CCc2ccc3n2[B-](F)(F)[N+]2=C(c4ccc[nH]4)C=CC2=C3)ccc1O)C(C)C
1.07

Value lookup for NanoBRET Fold Response; key = O=C(CCc1ccc2n1[B-](F)(F)[N+]1=C(c3ccc[nH]3)C=CC1=C2)NCc1ccc(C(=O)NCCOCCC(=O)N[C@@H]2CC[C@@]3(O)[C@H]4Cc5ccc(O)c6c5[C@@]3(CCN4CC3CC3)[C@H]2O6)cc1 [Naltrexone-3-NB590]
0.90

---

Measured NanoBRET Fold Response, listed per entry.
# assayed_target: PTGIR (Homo sapiens, UniProt P43119)
# Construct: purchased Promega (in-house HiBiT-GPCR construct library, NanoBRET)
# Sequence (P43119 whole entry): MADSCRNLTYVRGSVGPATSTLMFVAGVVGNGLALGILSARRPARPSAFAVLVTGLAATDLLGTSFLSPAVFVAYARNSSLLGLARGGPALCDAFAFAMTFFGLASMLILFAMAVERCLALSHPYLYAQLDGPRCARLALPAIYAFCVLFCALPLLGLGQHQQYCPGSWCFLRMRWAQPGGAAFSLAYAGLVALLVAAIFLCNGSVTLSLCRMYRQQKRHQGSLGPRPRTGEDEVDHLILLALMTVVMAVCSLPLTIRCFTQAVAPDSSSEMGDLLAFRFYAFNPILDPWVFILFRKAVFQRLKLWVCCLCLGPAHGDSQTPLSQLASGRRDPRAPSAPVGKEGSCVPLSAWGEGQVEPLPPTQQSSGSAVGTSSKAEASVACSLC
# test_summary: NanoBRET screen HiBiT-PTGIR in HEK293
# Format: binding
# run_conditions: PTGIR; tracer 0.1μM
Give the figure by itself; no unit, no explanation.

compound: CC(C)N(CC[C@H](c1ccccc1)c1cc(CCNC(=O)CCOCCOCCOCCOCCNC(=O)CCc2ccc3n2[B-](F)(F)[N+]2=C(c4ccc[nH]4)C=CC2=C3)ccc1O)C(C)C [Tolterodine-2-NB590]
NanoBRET Fold Response: 1.07
--
compound: Cc1cc2c(s1)Nc1ccccc1N=C2N1CCN(CCCNC(=O)CCOCCOCCOCCOCCNC(=O)CCc2ccc3n2[B-](F)(F)[N+]2=C(c4ccc[nH]4)C=CC2=C3)CC1 [Olanzapine-a-2-NB590]
NanoBRET Fold Response: 0.99
--
compound: CN(C)CCC=C1c2ccccc2CCc2ccc(C(=O)NCCNC(=O)CCOCCOCCOCCOCCNC(=O)CCc3ccc4n3[B-](F)(F)[N+]3=C(c5ccc[nH]5)C=CC3=C4)cc21 [Amitriptyline-b-2-NB590]
NanoBRET Fold Response: 0.99

Value lookup for NanoBRET Fold Response; key = O=C(CCc1ccc2n1[B-](F)(F)[N+]1=C(c3ccc[nH]3)C=CC1=C2)NCCOCCOCCNC(=O)OCCOCCN1CCN(C2=Nc3ccccc3Sc3ccccc32)CC1 [Quetiapine-a-2-NB590]
1.03

Value lookup for NanoBRET Fold Response; key = CC(C)N(CC[C@H](c1ccccc1)c1cc(CCNC(=O)c2ccc(CNC(=O)CCc3ccc4n3[B-](F)(F)[N+]3=C(c5ccc[nH]5)C=CC3=C4)cc2)ccc1O)C(C)C [Tolterodine-BZ-NB590]
1.00

---

Measured NanoBRET Fold Response, listed per entry.
# assayed_target: CHRM2 (Homo sapiens, UniProt P08172)
# Construct: purchased Promega (in-house HiBiT-GPCR construct library, NanoBRET)
# Sequence (P08172 whole entry): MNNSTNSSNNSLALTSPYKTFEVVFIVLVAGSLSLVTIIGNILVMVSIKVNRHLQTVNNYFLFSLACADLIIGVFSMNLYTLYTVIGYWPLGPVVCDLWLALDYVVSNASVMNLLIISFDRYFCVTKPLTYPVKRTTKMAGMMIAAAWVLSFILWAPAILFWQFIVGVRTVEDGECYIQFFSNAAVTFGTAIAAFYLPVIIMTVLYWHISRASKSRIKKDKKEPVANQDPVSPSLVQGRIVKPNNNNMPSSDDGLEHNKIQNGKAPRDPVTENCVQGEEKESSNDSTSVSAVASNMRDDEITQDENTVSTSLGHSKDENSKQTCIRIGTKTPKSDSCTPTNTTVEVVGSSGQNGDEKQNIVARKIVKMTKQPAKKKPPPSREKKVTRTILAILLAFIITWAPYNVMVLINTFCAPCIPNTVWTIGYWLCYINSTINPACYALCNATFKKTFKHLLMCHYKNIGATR
# test_summary: NanoBRET screen HiBiT-CHRM2 in HEK293
# Format: binding
# run_conditions: CHRM2; tracer 1μM
Give the figure by itself; no unit, no explanation.

compound: Cc1nc2n(c(=O)c1CCN1CCC(c3noc4cc(F)ccc34)CC1)CCCC2OC(=O)NCCOCCOCCOCCOCCNC(=O)CCc1ccc2n1[B-](F)(F)[N+]1=C(c3ccc[nH]3)C=CC1=C2 (stereo not shown) [Risperidone-2-NB590]
reported_result: 1.26
--
compound: N#CN=C(NCCCOc1cccc(CN2CCCCC2)c1)NCCNC(=O)CCOCCOCCOCCOCCNC(=O)CCc1ccc2n1[B-](F)(F)[N+]1=C(c3ccc[nH]3)C=CC1=C2 [Aminopotentidine-2-NB590]
reported_result: 1.68
--
compound: O=C(CCOCCOCCOCCOCCNC(=O)CCc1ccc2n1[B-](F)(F)[N+]1=C(c3ccc[nH]3)C=CC1=C2)NCCCN1CCN(C2=Nc3ccccc3Oc3ccc(Cl)cc32)CC1 [Loxapine-a-2-NB590]
reported_result: 1.04
--
compound: CCCn1c(=O)c2[nH]c(-c3ccc(OCC(=O)NCCNC(=O)CCOCCNC(=O)c4ccc(CNC(=O)CCc5ccc6n5[B-](F)(F)[N+]5=C(c7ccc[nH]7)C=CC5=C6)cc4)cc3)nc2n(CCC)c1=O [XAC-3-NB590]
reported_result: 2.12

Value lookup for NanoBRET Fold Response; key = O=C(CCc1ccc2n1[B-](F)(F)[N+]1=C(c3ccc[nH]3)C=CC1=C2)NCCOCCOCCNC(=O)OCCOCCN1CCN(C2=Nc3ccccc3Sc3ccccc32)CC1 [Quetiapine-a-2-NB590]
1.75

Value lookup for NanoBRET Fold Response; key = CC(C)N(CC[C@H](c1ccccc1)c1cc(CCNC(=O)c2ccc(CNC(=O)CCc3ccc4n3[B-](F)(F)[N+]3=C(c5ccc[nH]5)C=CC3=C4)cc2)ccc1O)C(C)C [Tolterodine-BZ-NB590]
2.14

Value lookup for NanoBRET Fold Response; key = COc1ccccc1N1CCN(CCCCN2C(=O)c3ccc(CNC(=O)CCOCCNC(=O)c4ccc(CNC(=O)CCc5ccc6n5[B-](F)(F)[N+]5=C(c7ccc[nH]7)C=CC5=C6)cc4)cc3C2=O)CC1 [NAN-190-3-NB590]
0.95
